# key: entry, value: log10 Ki
- Target Of Assay: Ox receptor
- Test: Ox receptor binding, [3H]-rilmenidine displacement in rat brain homogenates
- Study Conditions: read-out: Receptor Affinities (nM) Ox; rat brain homogenates, Table 3
Record value = log10 of Ki given in nM.

Example entries and their recorded answers appear below.
{"Molecule": "C1COC(NC(C2CC2)C2CC2)=N1", "log10 Ki": 1.18}
{"Molecule": "C[C@@H](NC1=NCCO1)C1CCCCC1 [(R)-(−)-O504]", "log10 Ki": 1.49}
{"Molecule": "c1ccc2c(c1)OCC(C1=NCCN1)O2 (stereo not drawn)", "log10 Ki": 4.79}
{"Molecule": "C[C@H](NC1=NCCO1)C1CCCCC1 [(S)-(+)-O504]", "log10 Ki": 2.03}
{"Molecule": "C1CCC(C(NC2=NCCO2)C2CCCCC2)CC1", "log10 Ki": 2.07}

The measured log10 Ki associated with c1ccc(C(NC2=NCCO2)c2ccccc2)cc1 reads 2.20

The measured log10 Ki associated with COC1(C2=NCCN2)COc2ccccc2O1 (stereo not drawn) reads 5.50

The measured log10 Ki associated with CCC1CCCC(CC)C1NC1=NCCO1 (stereo not drawn) reads 1.26

* * *

- Tested on: Ox receptor
- Test: Ox receptor binding, [3H]-rilmenidine displacement in rat brain homogenates
- Study Conditions: rat
Parameter: affinity for the Ox receptor (in words)

{"Compound": "c1ccc2c(c1)OCC(C1=NCCN1)O2 (stereo not shown) [Idazoxan, 2-(1,4-benzodioxan)-imidazoline]", "Parameter": "affinity for the Ox receptor (in words)", "Reported Result": "poor (μM) affinity"}
{"Compound": "c1ccc2nc(C3=NCCN3)ccc2c1 [BU-224, 2-(4,5-dihydroimidaz-2-yl)quinoline]", "Parameter": "affinity for the Ox receptor (in words)", "Reported Result": "poor (μM) affinity"}

* * *

- Target Of Assay: Ox receptor
- Test: Ox receptor binding, [3H]-rilmenidine displacement in human brain homogenates
- Study Conditions: human brain homogenates, Table 5; read-out: Receptor Affinities (nM) Ox
Entries whose Ki is below 100 nM take rule met; entries at or above 100 nM take rule not met.

Below, 4 compounds whose answers are already recorded.
{"Compound": "CCC1CCCC(CC)C1NC1=NCCO1 (centres unmarked)", "Class Label": "rule met"}
{"Compound": "C[C@@H](NC1=NCCO1)C1CCCCC1 [(R)-(−)-O504]", "Class Label": "rule not met"}
{"Compound": "c1ccc2c(c1)OCC(C1=NCCN1)O2 (centres unmarked)", "Class Label": "rule not met"}
{"Compound": "c1ccc(C(NC2=NCCO2)c2ccccc2)cc1", "Class Label": "rule not met"}

Lookup: State whether 100 nM exceeds Ki recorded for C1COC(NC(C2CC2)C2CC2)=N1 .
Found: rule not met

Lookup: State whether 100 nM exceeds Ki recorded for C[C@H](NC1=NCCO1)C1CCCCC1 [(S)-(+)-O504] .
Found: rule not met

Lookup: State whether 100 nM exceeds Ki recorded for C1CCC(C(NC2=NCCO2)C2CCCCC2)CC1 .
Found: rule met

* * *

- Target Of Assay: α2-adrenoceptor
- Test: α2-adrenoceptor binding, [3H]-methoxyidazoxan displacement in rat brain homogenates
- Study Conditions: rat brain homogenates, Table 4; read-out: Receptor Affinities (nM) α2
Parameter: Ki (nM)
Write the value in nM as a bare number.

Example entries and their recorded answers appear below.
{"Molecule": "C1COC(NC(C2CC2)C2CC2)=N1 [Rilmenidine]", "Output Unit": "nM", "Reported Result": 410}
{"Molecule": "C[C@@H](NC1=NCCO1)C1CCCCC1 [(R)-(−)-O504]", "Output Unit": "nM", "Reported Result": 590}
{"Molecule": "C[C@H](NC1=NCCO1)C1CCCCC1 [(S)-(+)-O504]", "Output Unit": "nM", "Reported Result": 30}

Now take the following molecule into account.
The measured Ki associated with CCC1CCCC(CC)C1NC1=NCCO1 (stereo not shown) [Compound O501] reads 210
